Each recorded value in this set is attributed to patent US9682928B2.

- Tested on: Sprague-Dawley rats
- MEASUREMENT DESCRIPTION: Kainic acid induced seizures in rats
- Type: in vivo, rat
- REPORTED CONDITIONS: Rattus norvegicus, 2 h; 20 μmoles/kg IP; vs DMSO control; read-out: Percent reduction in Seizures Severity
Recorded change in vivo at 20 µmol/kg values for a group of compounds are listed next.
Numeric only. Scale: %

Worked cases, change in vivo at 20 µmol/kg given:
COMPOUND	RESULT VALUE
CCCCNc1cc(C(=O)N2CCCC2)cc(S(N)(=O)=O)c1Oc1ccccc1 [NTP-2022]	-54.2
CCCCNc1cc(C(=O)O)cc(S(N)(=O)=O)c1Oc1ccccc1 [Bumetanide, reference compound]	-70.8
CCCCNc1cc(C(=O)N(C)C)cc(S(N)(=O)=O)c1Oc1ccccc1 [NTP-2015]	-54.2
CCCCNc1cc(C(=O)OCOC(=O)C(C)(C)C)cc(S(N)(=O)=O)c1Oc1ccccc1 [NTP-2012]	-91.7

Quick note, change in vivo at 20 µmol/kg for CCCCNc1cc(C(=O)N(CC)CC)cc(S(N)(=O)=O)c1Oc1ccccc1 [NTP-2007] landed at -37.5

Quick note, change in vivo at 20 µmol/kg for OC[C@@H](O)[C@@H](O)[C@H](O)[C@H](O)CO [Mannitol, reference compound] landed at -79.2

Quick note, change in vivo at 20 µmol/kg for CCCCNc1cc(C(=O)N(Cc2ccccc2)Cc2ccccc2)cc(S(N)(=O)=O)c1Oc1ccccc1 [NTP-2008] landed at -95.8

Quick note, change in vivo at 20 µmol/kg for CCCCNc1cc(C(=O)OCC(=O)N(C)C)cc(S(N)(=O)=O)c1Oc1ccccc1 [NTP-2011] landed at -87.5
